biological target: T1, ZIKV (prM80E) with a C-terminal myc-myc-hexahistidine tag (Zika virus, UniProt A0A024B7W1 104-694); experiment: SPR, mAb captured, 37C
T1 construct: also called ZIKV (prM80E)-mmH; ZIKV-mmH
I'd appreciate it if you could supply pKd values for the items below.
One number for each entry, as −log10 of the molar value.

Answered cases to consult:
H4H25617P (antibody, V domains shown) VH: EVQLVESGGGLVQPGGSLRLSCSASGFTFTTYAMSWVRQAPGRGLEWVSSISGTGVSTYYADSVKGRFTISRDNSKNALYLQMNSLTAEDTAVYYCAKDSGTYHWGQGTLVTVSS VL: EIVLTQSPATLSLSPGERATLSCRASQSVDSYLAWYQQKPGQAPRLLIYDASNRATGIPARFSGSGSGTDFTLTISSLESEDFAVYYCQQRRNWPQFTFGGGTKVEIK :: 7.79
H4H25640P (antibody, V domains shown) VH: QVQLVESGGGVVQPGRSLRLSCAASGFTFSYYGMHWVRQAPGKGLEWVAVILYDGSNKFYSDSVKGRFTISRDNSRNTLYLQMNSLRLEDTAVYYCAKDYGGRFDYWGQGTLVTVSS VL: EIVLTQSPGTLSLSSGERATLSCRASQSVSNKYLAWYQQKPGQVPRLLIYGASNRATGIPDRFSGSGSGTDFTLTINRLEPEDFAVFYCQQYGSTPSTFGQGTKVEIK :: 8.90

Okay, next one:
Given H4H25703N (antibody, V domains shown) VH: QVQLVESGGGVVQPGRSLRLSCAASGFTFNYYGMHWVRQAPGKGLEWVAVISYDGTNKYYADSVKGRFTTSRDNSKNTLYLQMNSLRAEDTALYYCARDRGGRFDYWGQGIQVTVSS VL: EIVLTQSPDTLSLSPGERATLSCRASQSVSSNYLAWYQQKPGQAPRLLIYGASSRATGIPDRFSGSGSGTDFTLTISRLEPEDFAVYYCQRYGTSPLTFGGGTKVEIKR , state its recorded pKd.
8.62
